Let's look at some molecules and their measured melting point.

In [3]: df
Out[3]:
                                   molecule  reported_result
0  CP1(=O)c2ccccc2CN1c1ccc(Br)cc1 (centres undefined)    135 to 136 °C
1  COc1cc(OC)cc(-c2ncoc2-c2ccc(OC)c(N)c2)c1    163 to 165 °C
2  CCOc1ccc(Nc2ncccc2NS(=O)(=O)c2ccc(OC)cc2)cc1    144 to 146 °C
3  COC(=O)C1OC(Oc2nc[nH]c2C(N)=O)C(OC(C)=O)C(OC(C)=O)C1OC(C)=O (centres undefined)    211 to 212 °C

What melting point value was documented for this molecule, CC1(C)CC(NC(=O)Nc2ccccc2)c2cc(C#N)ccc21 (centres undefined) ? 150 to 152 °C

What melting point value was documented for this molecule, Cn1c(COc2ccc(CC3SC(=O)NC3=O)cc2)nc2cc(Br)cnc21 (centres undefined) ? 204 to 205 °C

What melting point value was documented for this molecule, COc1cc(NCCOc2ccccc2C)ccc1C(=O)N1CCCC(CC(=O)N2CCN(C)CC2)c2cc(Cl)ccc21 (centres undefined) ? 160 to 161 °C

What melting point value was documented for this molecule, N#Cc1cccc(NCCC(=O)O)c1 ? 119 °C

What melting point value was documented for this molecule, CCN1CCC(NC(=O)Nc2ccccc2CCc2cc(C(C)(C)C)c(O)c(C(C)(C)C)c2)CC1 ? 182 to 184 °C

---

Let's look at some compounds and their measured melting point.

>>> print(df.to_string())
                                   compound  reported_result
0  CN1CCC(C2c3sccc3C=Cn3ncnc32)CC1 (stereo unspecified)           137 °C
1                     COc1ccc(CNC(=S)SC)cc1      67 to 70 °C
2  Fc1cc(F)c2c(c1)CC(n1cc[nH]c1=S)C2 (stereo unspecified)    185 to 186 °C

What melting point value was documented for this compound, CCOc1cc(OC2CCN(C)CC2)c(F)c([C@H](Nc2ccc(C(=N)N)cc2)C(=O)O)c1 ? 267 °C

What melting point value was documented for this compound, Cc1nn2c(-c3cccnc3)ccnc2c1C#N ? 245 to 246 °C

What melting point value was documented for this compound, CN(C(=S)NN)c1ccccc1 ? 121 to 122 °C

What melting point value was documented for this compound, Cn1nc(CS(C)(=O)=O)nc1NCCCOc1ccc(CN2CCCCC2)cc1 ? 131 to 134 °C

What melting point value was documented for this compound, O=C1OC(=O)c2ncc([N+](=O)[O-])cc21 ? 85 to 91 °C

What melting point value was documented for this compound, CNC(c1nc(-c2ccc3c(c2)Nc2ccccc2S3)cs1)C(C)C (stereo unspecified) ? 130 °C

What melting point value was documented for this compound, C=C(C)C(=O)c1nc(S(=O)C(C)C)n(-c2ccc(CC)cc2)c1Cl (stereo unspecified) ? 83 to 84 °C

What melting point value was documented for this compound, CCCCCC(=O)NCCc1ccc(S(=O)(=O)NC(=O)c2ccc(C(=O)NCC(=O)O)nc2)cc1 ? 115 to 116 °C

---

Let's look at some compounds and their measured melting point.

Please review the entries below; each comes with its answer.
                                   compound  reported_result
0            Cn1c(=O)ccc2c(-c3ccccc3)nccc21    190 to 192 °C
1  CC1CCC(C(C)C)C(OC(=O)C2C(=O)N(Cc3ccc(Br)cc3F)C(=O)c3cccn32)C1 (centres undefined)      98 to 99 °C
2  N#Cc1cc(F)c(-c2ncnc(C(F)(F)F)c2Cl)cc1[N+](=O)[O-]      90 to 92 °C

What melting point value was documented for this compound, CC1C(CCc2ccccc2)SC2=CC=NC3=CC=CC(c4ccccc4)C321 (centres undefined) ? 210 °C

What melting point value was documented for this compound, CCOc1ccc(-c2nc(-c3ccc(S)cc3C(=O)O)cs2)cc1OCC ? 283 to 285 °C

What melting point value was documented for this compound, O=C1SC(Cc2ccc(OCCON=Cc3cnc4ccccc4c3)cc2)C(=O)N1C(c1ccccc1)(c1ccccc1)c1ccccc1 (centres undefined) ? 127 to 130 °C

What melting point value was documented for this compound, Cc1ccc(C(O)(c2ccc(C)cc2)[C@H](C)OS(C)(=O)=O)cc1 ? 83 to 85 °C

What melting point value was documented for this compound, Cc1cc(O)ccc1-c1cnc2[nH]c(=O)n(CC3CCCCC3)c2n1 ? 212 to 214 °C

What melting point value was documented for this compound, COC(=O)CCCc1cc2nc(Cl)ccc2n1S(=O)(=O)c1ccc(C(F)(F)F)cc1 ? 99 °C
